# Tested on: HMLE_sh_eGFP viability, CellTiter-Glo luminescence, 72 h
# Experiment summary: cytotoxicity in HMLE control line with eGFP shRNA, dose response, counter-screen for HMLE_sh_ECad selective toxicity project, cell-based, HMLE_sh_eGFP, luminescence (AID 463074);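 also: counterscreen control line to flag general toxicity for the HMLE_sh_ECad screen; potency for loss of viability as luminescence drops below DMSO wells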
Active and inactive are the calls of the source.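 The calls were made as follows: active = AC50 no more than tenfold above the top dose tested, or full inhibition at every dose with a flat fit (cut at about 19 µM in these data); inconclusive = flat curve fit with inhibition between 30% and 70%, or poor fit; inactive = AC50 more than tenfold above the top dose tested.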
Assign a class; possible classes are 1 (yes) for active, 0 (no) for inactive

Compound	Classification
N#C/C(=C\c1c(F)cccc1Cl)c1nn(-c2ccccc2)c(-n2cccc2)c1C#N	1 (yes)

Can you look up the reported call for CCc1ccc2[nH]c3nc(N/N=C/c4cccc(O)c4)nnc3c2c1 for me? 1 (yes)

Can you look up the reported call for CC#CCOC(=O)c1c(C)nc2sc3c(c2c1N)CCC(O)C3 (configuration not stated) for me? 1 (yes)

Can you look up the reported call for Cn1c2ccccc2c(=O)c2cc(C#Cc3ccccn3)ccc21 for me? 0 (no)

Can you look up the reported call for CCCCN(C)c1nc(-c2ccco2)c2c(c1C#N)CC(C)(C)OC2 for me? 1 (yes)

Can you look up the reported call for Cc1nc2c3cc(F)ccc3n(Cc3ccccc3)c2s1 for me? 1 (yes)

Can you look up the reported call for Cc1cccc2c1NC(=O)/C2=C\C(=O)c1cccs1 for me? 1 (yes)

Can you look up the reported call for FC(F)(F)c1cc(CCN2CCNC[C@H]2Cc2cccc3ccccc23)cc(C(F)(F)F)c1 for me? 1 (yes)

Can you look up the reported call for CCOC(=O)/C=C/C(=O)Nc1cccc([N+](=O)[O-])c1 for me? 1 (yes)

Can you look up the reported call for O=C1C=C(c2ccc(Cl)c(C(F)(F)F)c2)C[C@@H](c2ccc(Cl)cc2)C1 for me? 1 (yes)

Can you look up the reported call for N#CCc1ccc(NC(=O)Nc2cccc(Cl)c2)cc1 for me? 1 (yes)

Can you look up the reported call for CCc1nc(N2CCC(C)CC2)c2oc3ccccc3c2n1 for me? 1 (yes)

Can you look up the reported call for Cc1ccc(NC2=C(Cl)C(=O)c3ccccc3C2=O)cc1 for me? 1 (yes)

Can you look up the reported call for COc1ccc(C(=O)/C=C/c2cc(OC)c(O)c(OC)c2)c(F)c1 for me? 1 (yes)

Can you look up the reported call for CCN(CC)CCCNC(=O)c1cc2c(Cl)nc3ccccc3c2s1 for me? 1 (yes)

Can you look up the reported call for CC1CCN(c2nc(Cl)nc(Nc3ccc([N+](=O)[O-])cc3)n2)CC1 for me? 1 (yes)

Can you look up the reported call for CC(=O)c1ccc(N2CCC(c3cc(-c4ccc(Cl)cc4Cl)n[nH]3)CC2)c([N+](=O)[O-])c1 for me? 1 (yes)

Can you look up the reported call for Clc1ccc2c(N/N=C/c3ccc(Br)cc3)ccnc2c1 for me? 1 (yes)

Can you look up the reported call for C=CCn1c(O)c(C2=c3ccccc3=NC2=O)sc1=Nc1ccc(O)cc1 for me? 1 (yes)

Can you look up the reported call for Cc1cc([N+](=O)[O-])ccc1-c1ccc(/C=N/NC(=O)c2ccc(Br)o2)o1 for me? 1 (yes)

Can you look up the reported call for CCN(CC)S(=O)(=O)c1ccc(N/N=C/c2cc(OC)ccc2O)nc1 for me? 1 (yes)

Can you look up the reported call for COCC(C)NC(=O)NC1(C(F)(F)F)Oc2ccc(Cl)cc2O1 (configuration not stated) for me? 1 (yes)
